Cited source for all entries: paper PMC9352680

# SYSTEM: T1, PUF4 RNA-binding domain (Saccharomyces cerevisiae, UniProt P25339 537-888)
# T1 sequence: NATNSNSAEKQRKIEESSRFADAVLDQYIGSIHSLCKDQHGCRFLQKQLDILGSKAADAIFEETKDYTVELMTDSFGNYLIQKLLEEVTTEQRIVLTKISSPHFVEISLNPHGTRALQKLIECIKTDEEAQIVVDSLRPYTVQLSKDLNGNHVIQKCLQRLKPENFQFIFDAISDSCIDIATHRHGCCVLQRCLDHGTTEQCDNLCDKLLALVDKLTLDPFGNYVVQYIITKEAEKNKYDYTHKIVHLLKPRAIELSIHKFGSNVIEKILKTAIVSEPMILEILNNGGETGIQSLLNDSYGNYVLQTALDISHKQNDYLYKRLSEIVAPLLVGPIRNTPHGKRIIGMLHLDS
# EXPERIMENTAL DETAILS: Mg; RNA-MaP; 20 mM Na-HEPES pH 7.4, 30 mM KOAc, 0.75 mM MgCl2, 0.1% Tween-20, 5% glycerol, 0.1 mg/mL BSA, 2 mM DTT; 25 C; 0.0125-409.6 nM protein
# CONDITION CONTEXT: tags: N-His6-TEV cleaved; C-SNAP kept, Cy3B-labelled; label: tethered on chip by stalled RNA polymerase
List of Kd values.
Dear colleague, please return just the value in nM, with no unit written.

Please review the following examples before continuing.
1. UCUCUUUGUAUUUUCAUUAUCUCUU (ssRNA) [Ie_S1_P5E.1_K5.1_C5.1_H5.1_A5.1_[+6TTC]_F5.1_T5.1] | 40.7
2. ACAAACCUUAUAUAUUAGUACAAAC (ssRNA) [If_S3_P4E.3_K4.2_C4.2_H4.2_A4.1_F4.1_T4.2] | 3.71
3. Ie_S2_P4E.1_K4.1_C4.1_H4.1_A4.1_[+6CCCT]_F4.1_T4.1 (ssRNA) RNA: UUUGAUUAAUAUGAUAUCGUUCUUUCUUGUAUACCCUUUAUUCUUUCUCGAUAUCAUAUUAAUCUUU | 26.5
4. UCUCUUAGUAUUUUAUCUCUU (ssRNA) [Ib_S1_P4E.1_K4.1_C4.1_H4.1_[T1A]_A4.1_[A6T]_F4.1_T4.1] | 798
5. Ie_S2_P5E.1_K5.1_C5.1_H5.1_[+2T]_A5.1_F5.1_T5.1 (ssRNA) RNA: UUUGAUUAAUAUGAUAUCGUUCUUUCUUGUUAUUAUUAUUCUUUCUCGAUAUCAUAUUAAUCUUU | 26

We next turn to a different binder, shown below.
Look at this binder and give its reported Kd. UCUCUUUGUACCUGCUUCUCUU (ssRNA) [Ic_S1_P5E.1_K5.1_C5.1_H5.1_A5.1_[T5C]_[T6C]_[A7T]_F5.1_[T8G]_[T9C]_[A10T]_T5.1]
378
